- assay: Solubility of Compound 1 in pharmaceutical solvents at 25° C.
- Format: physicochemical
- condition_summary: aqueous buffer; 10 mM Phosphate buffer (pH 7.4), 25° C.
readout: solubility

Looking up `Cc1ccc(F)cc1C(=O)Nc1ccc(C(=O)N2Cc3cccn3Cc3ccccc32)c(Cl)c1` , I found its solubility recorded as < 1 ng/mL

###

- assay: Solubility of Compound 1 in pharmaceutical solvents at 25° C.
- Assay type: physicochemical
- condition_summary: organic solvent or mixture; Triacetin, 25° C.
readout: solubility (µg/mL)
Expressed in µg/mL, but write only the number.

Looking up `Cc1ccc(F)cc1C(=O)Nc1ccc(C(=O)N2Cc3cccn3Cc3ccccc32)c(Cl)c1` , I found its solubility recorded as 2700

Source: patent US20070178147A1
